biological target: Cell division control protein 42 homolog (Homo sapiens); test: wildtype Cdc42 fluorescent GTP binding changes, either direction – biochemical, multiplex bead flow cytometry, Bodipy-GTP, primary screen (AID 761); conditions: GST-Cdc42 beads, at 10 µM, actives lie on both sides;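 note: median bead fluorescence of bound Bodipy-FL-GTP at 100 nM; 0% = excess unlabeled GTP control and 100% = no compound control; below 100% means less GTP binding so inhibitor and above means activator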
Hit rate of the full screen: of about 190,000 compounds, about 400 (0.21%) were called active. About 2% were inconclusive and are not listed.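 Rule for the calls: active = percent activity GTP binding at least 20 points away from the 100% baseline, either down as inhibitor or up as activator; inconclusive = compound flagged as likely green fluorescent from well-wide comparison; inactive = the rest.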 Shown is part of a subset that was picked to be rich in actives.
Classes used: 1 for active, -1 for inactive

| Compound | Measured Target | Assigned Class |
| --- | --- | --- |
| C=CCc1ccc(OCC(O)CN2CCN(Cc3ccccc3)CC2)c(OC)c1 (configuration not stated) | Cell division control protein 42 homolog (Homo sapiens) | -1 |
| O=C(NNC(=S)NCCCN1CCOCC1)c1ccncc1 | Cell division control protein 42 homolog (Homo sapiens) | -1 |
| O=C(Cc1cccs1)Nc1nnc(C2CC2)s1 | Cell division control protein 42 homolog (Homo sapiens) | -1 |
| COc1cccc(-n2nc(C(=O)N3CCN(Cc4ccccc4)CC3)c3ccccc3c2=O)c1 | Cell division control protein 42 homolog (Homo sapiens) | -1 |
| COc1ncnc2sc3c(c12)CCCC3 | Cell division control protein 42 homolog (Homo sapiens) | -1 |
| Cc1ccc(Nc2c(F)c(F)c(F)c(F)c2C(=O)O)c(C)c1 | Cell division control protein 42 homolog (Homo sapiens) | 1 |
| Fc1cccc(Cc2noc(CN3CCN(c4cnccn4)CC3)n2)c1 | Cell division control protein 42 homolog (Homo sapiens) | -1 |
| Cc1ccc(/C([O-])=C(/C(=S)NCc2ccco2)[n+]2ccccc2)cc1[N+](=O)[O-] | Cell division control protein 42 homolog (Homo sapiens) | -1 |
| O=C(NCc1cccs1)c1cc(-c2ccccn2)nc2ccc(Br)cc12 | Cell division control protein 42 homolog (Homo sapiens) | -1 |
| CC(=O)c1ccc(NC(=O)C(C)N(C)CC(=O)Nc2ccccc2Cl)cc1 (configuration not stated) | Cell division control protein 42 homolog (Homo sapiens) | -1 |
| COC(=O)C(C)N=Cc1ccccc1 (configuration not stated) | Cell division control protein 42 homolog (Homo sapiens) | -1 |
| CCOc1ccc(N(CC(=O)NCCc2ccc(OC)cc2)S(C)(=O)=O)cc1 | Cell division control protein 42 homolog (Homo sapiens) | -1 |
| O=C(CCN1CCN(C/C=C/c2ccccc2)CC1)Nc1cccc(F)c1 | Cell division control protein 42 homolog (Homo sapiens) | -1 |
| COC(=O)c1c(NC(=O)CCCC(=O)O)sc2c1CCCCC2 | Cell division control protein 42 homolog (Homo sapiens) | -1 |
| COc1ccc(CN(C)Cc2nc3cc(OC)c(OC)cc3c(=O)[nH]2)c(OC)c1 | Cell division control protein 42 homolog (Homo sapiens) | -1 |
| CCOC(=O)CSc1nc2c(sc(=S)n2CCc2ccccc2)c(=O)n1Cc1ccco1 | Cell division control protein 42 homolog (Homo sapiens) | -1 |
| CC1(C)CC(=O)CC2(C1)NCC(c1ccccc1Cl)c1c2[nH]c2ccccc12 (configuration not stated) | Cell division control protein 42 homolog (Homo sapiens) | -1 |
